Tested on: HEK-293T
TEST NAME: Multiplex assay against HEK293T
Assay type: toxicity, cell-based
EXPERIMENTAL PARAMETERS: human, 48 h, 1 µM, compound concentration 1 uM, replicate 1
Consider the following molecules; for each one, report its Population Pyknosed Nuclei (%).
Note: unit % is implicit; provide only the numeric part.

Given CC(C)(O)CNc1ncc(-c2ccnc(Nc3ccnc(Cl)c3)n2)c(CC2CC2)n1 , respond with its Population Pyknosed Nuclei (%).
47

Return Population Pyknosed Nuclei (%) (reported value) for this molecule: O=C1NCN(c2ccccc2)C12CCN(CCCOc1ccc(F)cc1)CC2 [SPIRAMIDE]
12

State its Population Pyknosed Nuclei (%): CC(C)NCC(O)COc1ccc(CCOCC2CC2)cc1.Cl (configuration not stated) [BETAXOLOL HYDROCHLORIDE]
12

Assign Population Pyknosed Nuclei (%) to the following record: Cc1cc(C)cc(-c2cnc3cc(Cl)c(-c4cccc(O)c4)cc3c2OCCCN)c1
68

Find the measured Population Pyknosed Nuclei (%) of COc1ncc(-c2ccc3nccc(-c4ccnnc4)c3c2)cc1NS(=O)(=O)c1ccc(F)cc1F and report it.
64

Output Population Pyknosed Nuclei (%) of CN1CCCC(n2nc(Cc3ccc(Cl)cc3)c3ccccc3c2=O)CC1.Cl (configuration not stated) [AZELASTINE HYDROCHLORIDE]
42

Please give the documented Population Pyknosed Nuclei (%) of Cc1nc(-c2ccc(-c3ccc(C(=O)N4CCc5cc6c(cc54)C4(CCN(C)CC4)CO6)cc3)c(C)c2)no1
30

Indicate its recorded Population Pyknosed Nuclei (%); the molecule in question is CN(C)CC#Cc1ccc(OCCCc2sc(N3CCc4cccc(C(=O)Nc5nc6ccccc6s5)c4C3)nc2C(=O)O)c(F)c1
48

Give Population Pyknosed Nuclei (%) for Cc1csc2c(N[C@@H](C)CN3CCN(S(=O)(=O)c4ccc(Cl)c(Cl)c4)CC3)ncnc12
45

For the molecule CN(C)C(=O)/C(C#N)=C/c1ccc(-c2nc3cnc4[nH]ccc4c3n2C2CCCCC2)o1 , give its reported Population Pyknosed Nuclei (%).
37

Given the molecule CN(C)C(=O)N[C@H]1CC[C@H](CCN2CCN(c3cccc(Cl)c3Cl)CC2)CC1.Cl [CARIPRAZINE HYDROCHLORIDE] , write its reported Population Pyknosed Nuclei (%).
12

Provide only the value of recorded Population Pyknosed Nuclei (%) for Cl.N#Cc1ccc2[nH]cc(CCCCN3CCN(c4ccc5oc(C(N)=O)cc5c4)CC3)c2c1 [VILAZODONE HYDROCHLORIDE]
15

All values here come from ChEMBL document CHEMBL4689842.
